The origin of these recorded values is PubChem BioAssay.

Entries and their viability values follow.
# METHOD_SUMMARY: growth inhibitors of H69AR lung tumor, primary screen, human, duplicate replicates (AID 580);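 also: 100% = mean luminescence of untreated wells and 0% = no signal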
# TEST_CONDITIONS: H69AR lung tumor cells viability, ATP luminescence, 72 h; at 10 µM; hits give low values
Report the value in % with no unit label.

Guide cases for viability, answers given:
>>> print(df.to_string())
                                   compound  readout_kind  numeric_value
0  CCC(C)NC(=O)CC1Oc2ccc(C)cc2NC1=O (stereo not drawn)     viability           91.7
1  CC(C)CNC(=O)C1C2C=CC(C2)C1C(=O)O (stereo not drawn)     viability            111

// switching to the query compound
(Q) Which viability is reported for this compound? O=S(=O)(c1ccc2nc(Cc3cccc(C(F)(F)F)c3)[nH]c2c1)N1CCOCC1
(A) 82.9
